The origin of these recorded values is PubChem BioAssay (NCI).

assay: NCI Yeast Anticancer Drug Screen. Data for the mec2-1 strain (AID 157); conditions: S. cerevisiae mec2-1 strain, at 50.0 µM, active compounds read high
The panel holds about 79,000 compounds, 15% with a hit somewhere; the sample as a whole holds those more often.
Consider the following compounds; for each one, report its growth inhibition.
One number for each entry, in %.

Some compounds with recorded growth inhibition:
> print(dat)
                                   compound       readout.kind  units.label  reported.measurement
1                  N#Cc1ccc(C(Cl)(Cl)Cl)cc1  growth inhibition            %                 -17.6
2  CCOc1cc(CCNC)c2c(ccc3ccc(OC)c(O)c32)c1OC  growth inhibition            %                  -0.4
3             Cc1ccccc1-n1c(C)nc2ccccc2c1=O  growth inhibition            %                 -30.7
4  CC1(C(=O)O)OC1c1ccccc1 (stereo unspecified)  growth inhibition            %                   1.2
5      O.O=[N+]([O-])O.[NH2-].[NH2-].[Pt+2]  growth inhibition            %                  20.4

Dear colleague, could you send me growth inhibition for each of the items below? Thanks.
1. CCC1(CC)C(=O)NC(=O)[N]([Sn]([CH3])([CH3])[N]2C(=O)NC(=O)C(CC)(CC)C2=O)C1=O
2. CCCCCC(=O)C[n+]1ccccc1 (tested in a mixture with another compound)
3. Nc1c([N+](=O)[O-])cncc1[N+](=O)[O-]
4. C[CH2][Sn]([CH2]C)([S]c1nc(O)cc(=O)[nH]1)[S]c1nc(O)cc(=O)[nH]1
5. Cc1cc(C)c(C(=O)O)c(C)c1.[Hg]

Result:
-3.7
-1.4
-4.15
41.9
99.8

Q: Which measured growth inhibition value corresponds to Cc1cc(S(=O)(=O)F)ccc1NC(=O)/C=C/c1ccc([N+](=O)[O-])cc1 ?
Result: 4
